- systemTested: T1, human transferrin receptor (human, UniProt P02786 89-760, limits assumed)
- T1 construct: also called TfR Human
- T1 sequence (P02786 89-760 limits assumed): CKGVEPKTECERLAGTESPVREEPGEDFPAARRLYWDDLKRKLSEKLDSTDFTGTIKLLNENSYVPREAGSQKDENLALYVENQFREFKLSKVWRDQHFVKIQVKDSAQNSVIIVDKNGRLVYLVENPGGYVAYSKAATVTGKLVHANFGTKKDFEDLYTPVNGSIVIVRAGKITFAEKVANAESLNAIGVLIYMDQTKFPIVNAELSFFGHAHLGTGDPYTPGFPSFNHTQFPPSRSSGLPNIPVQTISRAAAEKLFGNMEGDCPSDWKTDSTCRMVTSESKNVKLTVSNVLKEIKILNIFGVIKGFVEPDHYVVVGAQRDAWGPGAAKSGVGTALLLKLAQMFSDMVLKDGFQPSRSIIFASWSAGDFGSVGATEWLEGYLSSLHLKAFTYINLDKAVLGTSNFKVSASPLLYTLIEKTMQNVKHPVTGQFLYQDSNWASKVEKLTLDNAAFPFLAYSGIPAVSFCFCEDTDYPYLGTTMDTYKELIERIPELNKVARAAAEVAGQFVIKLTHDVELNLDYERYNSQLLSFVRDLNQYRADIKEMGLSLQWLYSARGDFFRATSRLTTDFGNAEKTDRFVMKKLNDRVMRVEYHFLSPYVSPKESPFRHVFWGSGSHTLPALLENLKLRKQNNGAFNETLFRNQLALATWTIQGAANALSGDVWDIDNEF
- methodDescription: MST (Monolith NT.115), His-tag-dye-labelled protein, TfR titrated
pKd: −log10 of the molar value.
Assign class by pKd: not lower than 8 means MET; lower than 8 means NOT MET.

binder	discreteLabel
CD-gp100-huHF (other, also called CD-loop-gp100; huHF-CD-gp100) HHHHHHMTTASTSQVRQNYHQDSEAAINRQINLELYASYVYLSMSYYFDRDDVALKNFAKYFLHQSHEEREHAEKLMKLQNQRGGRIFLQDIKKPDCDDWESGLNAMECALHLEKNVNQSLLELHKLATDKNDKVPRNQDWLPHLCDFIETHYLNEQVKAIKELGDHVTNLRKMGAPESGLAEYLFDKHTLGDSDNES	MET
EC-gp100-huHF (other, One monomer is given; the particle is a self-assembled 24-mer. In the MST assay the His tag carried RED-tris-NTA dye non-covalently., also called gp100 fused between E helix and C-terminus; TSA insertion site EC, gp100) MHHHHHHEFTTASTSQVRQNYHQDSEAAINRQINLELYASYVYLSMSYYFDRDDVALKNFAKYFLHQSHEEREHAEKLMKLQNQRGGRIFLQDIKKPDCDDWESGLNAMECALHLEKNVNQSLLELHKLATDKNDPHLCDFIETHYLNEQVKAIKELGDHVTNLRKMGAPESGLAEYLFDKHTLGDSKVPRNQDWLDNES	MET
NA-gp100-huHF (other, One monomer is given; the particle is a self-assembled 24-mer. In the MST assay the His tag carried RED-tris-NTA dye non-covalently., also called gp100 fused between N-terminus and A helix; TSA insertion site NA, gp100) MHHHHHHTTASTSKVPRNQDWLQVRQNYHQDSEAAINRQINLELYASYVYLSMSYYFDRDDVALKNFAKYFLHQSHEEREHAEKLMKLQNQRGGRIFLQDIKKPDCDDWESGLNAMECALHLEKNVNQSLLELHKLATDKNDPHLCDFIETHYLNEQVKAIKELGDHVTNLRKMGAPESGLAEYLFDKHTLGDSDNES	NOT MET
AB-gp100-huHF (other, also called gp100-huHF (AB loop); TSA insertion site AB, gp100) HHHHHHMTTASTSQVRQNYHQDSEAAINRQINLELYASYVYLSMSYYFDRDDKVPRNQDWLVALKNFAKYFLHQSHEEREHAEKLMKLQNQRGGRIFLQDIKKPDCDDWESGLNAMECALHLEKNVNQSLLELHKLATDKNDPHLCDFIETHYLNEQVKAIKELGDHVTNLRKMGAPESGLAEYLFDKHTLGDSDNES	NOT MET

Data origin, for the record: patent US20240148898A1
